# system-name: GABA-A receptor; GABA-A site (alpha1/beta2 interface) (Homo sapiens) (UniProt P14867+P47870)
# experiment: Modulation of GABA Aalpha1beta2 receptor expressed in Xenopus laevis oocytes assessed as potentiation of GABA-induced chloride current at holding potential -70 mV by two-microelectrode voltage clamp technique relative to GABA
# Format: cell-based
# test-context: Oocyte
Reported Smax by item:
Respond with the bare value in %.

Here's what some known entries look like.
C=CCc1cc(NC)c(O)c(-c2ccc(OC)c(CC=C)c2)c1 : 2030
C=CCc1ccc(O)c(-c2cc(CC=C)ccc2OC)c1 : 2800
C=CCc1ccc(OC)c(-c2ccc(OC)c(CC=C)c2)c1 : 368
COc1ccc(-c2cc(CCO)ccc2O)cc1CCO : 177
C=CCc1cc(-c2ccc(OC)c(CC=C)c2)c(O)c([N+](=O)[O-])c1 : 227

// next entry
What Smax value was documented for this compound, C=CCc1ccc(O)c(-c2ccc(O)c(CC=C)c2)c1 ?
1030

---

# system-name: GABA-A receptor; GABA-A site (alpha1/beta2 interface) (Homo sapiens, UniProt P14867+P47870)
# Sequence (P14867 whole entry): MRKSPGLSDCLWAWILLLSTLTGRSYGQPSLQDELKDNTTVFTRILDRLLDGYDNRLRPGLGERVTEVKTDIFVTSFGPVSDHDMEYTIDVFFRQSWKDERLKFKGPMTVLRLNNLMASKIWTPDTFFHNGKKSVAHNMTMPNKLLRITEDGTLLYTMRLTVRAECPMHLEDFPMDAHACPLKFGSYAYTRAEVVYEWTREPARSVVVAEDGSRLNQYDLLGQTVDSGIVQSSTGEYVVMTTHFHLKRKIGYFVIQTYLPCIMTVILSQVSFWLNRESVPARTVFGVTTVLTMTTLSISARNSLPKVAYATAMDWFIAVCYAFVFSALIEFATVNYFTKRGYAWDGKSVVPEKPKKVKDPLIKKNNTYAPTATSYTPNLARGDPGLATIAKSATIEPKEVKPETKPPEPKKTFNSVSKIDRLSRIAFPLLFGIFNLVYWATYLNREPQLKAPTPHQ
# Sequence (P47870 whole entry): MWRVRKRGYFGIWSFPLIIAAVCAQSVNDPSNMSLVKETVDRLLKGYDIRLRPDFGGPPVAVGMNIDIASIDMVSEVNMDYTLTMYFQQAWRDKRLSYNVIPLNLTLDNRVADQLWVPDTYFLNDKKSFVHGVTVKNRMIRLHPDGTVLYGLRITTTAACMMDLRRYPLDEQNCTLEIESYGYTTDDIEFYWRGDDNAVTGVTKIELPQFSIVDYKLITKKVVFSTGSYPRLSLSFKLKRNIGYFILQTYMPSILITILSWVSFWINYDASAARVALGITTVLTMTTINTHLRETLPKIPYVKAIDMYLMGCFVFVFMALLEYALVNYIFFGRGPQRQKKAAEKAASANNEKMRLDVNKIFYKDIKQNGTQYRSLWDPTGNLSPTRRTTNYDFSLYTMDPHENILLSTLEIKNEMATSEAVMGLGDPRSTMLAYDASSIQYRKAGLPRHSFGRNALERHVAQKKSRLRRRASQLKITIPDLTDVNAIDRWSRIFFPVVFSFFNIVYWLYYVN
# experiment: Modulation of GABA Aalpha1beta2 receptor expressed in Xenopus laevis oocytes assessed as potentiation of GABA-induced chloride current at holding potential -70 mV by two-microelectrode voltage clamp technique
# Type: cell-based, Oocyte
Below is a list of entries, each paired with its recorded pEC50 value.
Interpret pEC50 as the negative base-10 log of the concentration measured in mol/L.

Worked examples, 6 compounds total:
C=CCc1ccc(O)c(-c2ccc(OCC)c(CC=C)c2)c1 : 4.22
C=CCc1cc(-c2cc(CC(C)Br)ccc2O)ccc1OC (stereo not given) : 5.08
C=CCc1ccc(O)c(-c2cc(CC=C)ccc2OC)c1 : 4.27
C=CCc1cc(-c2ccc(O)c(CC=C)c2)ccc1O : 4.63
C=CCc1cc(NC)c(O)c(-c2ccc(OC)c(CC=C)c2)c1 : 5.03
C=CCc1cc(NCC)c(O)c(-c2ccc(OC)c(CC=C)c2)c1 : 5.11

Quick check: pEC50 of C=CCc1ccc(O)c(-c2ccc(O)c(CC=C)c2)c1 ?
4.41

Now the compound C=CCc1ccc(OCCC)c(-c2ccc(O)c(CC=C)c2)c1
4.83

Next compound: C=CCc1ccc(O)c(-c2ccc(OC)c(/C=C\C)c2)c1
4.71

Query C=CCc1ccc(O)c(-c2ccc(OC)c(CC(C)Br)c2)c1 (stereo not given) next
4.77

---

# system-name: GABA-A receptor; GABA-A site (alpha1/beta2 interface) (Homo sapiens) (UniProt P14867+P47870)
# experiment: Modulation of GABA Aalpha1beta2 receptor expressed in Xenopus laevis oocytes assessed as potentiation of GABA-induced chloride current at holding potential -70 mV at 30 uM by two-microelectrode voltage clamp technique relative to GABA
# Type: cell-based
# test-context: Oocyte
# binning rule on Activity: Low = under 30%, Medium = from 30% up to 600%, High = 600% and over

CCCCC=CCc1ccc(O)c(-c2ccc(OC)c(CC=CCCCC)c2)c1 (mixture of isomers) : Low

Band for CCCc1cc(N)c(O)c(-c2ccc(OC)c(CCC)c2)c1 ?
High

---

# experiment: Octanol-water partition coefficient, log P of the compound
# Format: physicochemical
# test-context: read-out: logP
Each entry below carries its recorded logP.
Respond using a number only.

Below: 3 compounds and their reported logP.
CCCc1ccc(O)c(-c2ccc(OC)c(CCC)c2)c1 : 6.01
C=CCc1ccc(O)c(-c2ccc(OC)c(CC(C)Br)c2)c1 (centres undefined) : 5.99
C=CCc1cc(-c2ccc(OC)c(CC=C)c2)c(O)c(N(CC)CC)c1 : 6.06

Shift focus to the following entry.
Dear colleague, I am looking for the recorded logP of the following compound: C=CCc1cc(-c2cc(CC(C)Br)ccc2O)ccc1OC (centres undefined)
5.99

---

# system-name: GABA-A receptor; GABA-A site (alpha1/beta2 interface) (Homo sapiens) (UniProt P14867+P47870)
# experiment: Modulation of GABA Aalpha1beta2 receptor expressed in Xenopus laevis oocytes assessed as potentiation of GABA-induced chloride current at holding potential -70 mV at 30 uM by two-microelectrode voltage clamp technique relative to GABA
# Format: cell-based
# test-context: Oocyte
Tag: criterion met if measured Activity is not below 30%, criterion not met if it is.

As a guide, the following entries are already answered.
C=CCc1ccc(O)c(-c2ccc(OC)c(CC(C)Br)c2)c1 (centres undefined) : criterion met
C=CCc1ccc(OCCCCC)c(-c2ccc(OCCCCC)c(CC=C)c2)c1 : criterion not met
COc1ccc(-c2cc(CCO)ccc2O)cc1CCO : criterion not met
C=CCc1ccc(OCC)c(-c2ccc(OCC)c(CC=C)c2)c1 : criterion not met
C=CCc1ccc(OCCCCC)c(-c2ccc(O)c(CC=C)c2)c1 : criterion not met

Dear colleague, could you confirm whether C=CCc1ccc(OC)c(-c2ccc(OC)c(CC=C)c2)c1 has Activity at or above 30%?
criterion met

For C=CCc1cc(-c2ccc(O)c(CC=C)c2)ccc1O then?
criterion met

Ok, now C=CCc1ccc(O)c(-c2ccc(OCCCCC)c(CC=C)c2)c1
criterion not met

Ok, now C=CCc1cc(-c2ccc(OC)c(CC=C)c2)c(O)c([N+](=O)[O-])c1
criterion met

Again, but for C=CCc1ccc(OCC)c(-c2ccc(O)c(CC=C)c2)c1
criterion met

---

# system-name: GABA-A receptor; GABA-A site (alpha1/beta2 interface) (Homo sapiens) (UniProt P14867+P47870)
# experiment: Modulation of GABA Aalpha1beta2 receptor expressed in Xenopus laevis oocytes assessed as potentiation of GABA-induced chloride current at holding potential -70 mV at 30 uM by two-microelectrode voltage clamp technique relative to GABA
# Assay type: cell-based
# test-context: Oocyte
endpoint: Activity

C=CCc1ccc(OC2CC2)c(-c2ccc(OCCC)c(CC=C)c2)c1 : 339%
C=CCc1ccc(O)c(-c2ccc(O)c(CC=C)c2)c1 : 376%

Find the recorded Activity belonging to C=CCc1cc(-c2ccc(OC)c(CC=C)c2)c(O)c(N(CC)CC)c1 and report it.
7%

C=CCc1ccc(O)c(-c2ccc(OCC)c(CC=C)c2)c1 , same question.
345%

Continue with COc1ccc(-c2cc(CC(O)CO)ccc2O)cc1CC(O)CO (centres undefined)
4%

Okay, and C=CCc1ccc(O)c(-c2cc(CC=C)ccc2OC)c1 ?
687%

---

# system-name: GABA-A receptor; GABA-A site (alpha1/beta2 interface) (Homo sapiens) (UniProt P14867+P47870)
# experiment: Modulation of GABA Aalpha1beta2 receptor expressed in Xenopus laevis oocytes assessed as potentiation of GABA-induced chloride current at holding potential -70 mV at 30 uM by two-microelectrode voltage clamp technique relative to GABA
# Type: cell-based
# test-context: Oocyte
Entries and their measured Activity follow.
Please reply with the bare figure in % and do not write the unit itself.

// worked examples, Activity included
C=CCc1cc(N)c(O)c(-c2ccc(OC)c(CC=C)c2)c1 : 2180
C=CCc1cc(-c2cc(CC(C)Br)ccc2O)ccc1OC (stereo not drawn) : 1230
C=CCc1ccc(O)c(-c2ccc(OC)c(/C=C\C)c2)c1 : 605
C=CCc1cccc(-c2cccc(CC=C)c2O)c1O : 53
C=CCc1ccc(OCCC)c(-c2ccc(OCCC)c(CC=C)c2)c1 : 22

GET /values?readout=Activity&item= CCCc1ccc(O)c(-c2ccc(OC)c(CCC)c2)c1
1060

// query: COc1ccc(-c2cc(CC(C)O)ccc2O)cc1CC(C)O (stereo not drawn)
68

Try this compound next: C=CCc1cc(NCC)c(O)c(-c2ccc(OC)c(CC=C)c2)c1
2140
